biological target: WIZ protein (HiBit-WIZ fusion protein) (Homo sapiens, UniProt O95785+Q96SW2); construct: expressed in transfected cells; assay: Quantification of WIZ protein levels in HiBit tag fusion protein assay (WIZ HiBit assay in 293T cells); assay type: cell-based; conditions: HEK-293T, DMSO-normalized, curve-fitted percentage of WIZ-HiBit remaining at 25 uM; 293T cells; read-out: WIZ Amax
Sequence (O95785 whole entry, the tested form may be a part): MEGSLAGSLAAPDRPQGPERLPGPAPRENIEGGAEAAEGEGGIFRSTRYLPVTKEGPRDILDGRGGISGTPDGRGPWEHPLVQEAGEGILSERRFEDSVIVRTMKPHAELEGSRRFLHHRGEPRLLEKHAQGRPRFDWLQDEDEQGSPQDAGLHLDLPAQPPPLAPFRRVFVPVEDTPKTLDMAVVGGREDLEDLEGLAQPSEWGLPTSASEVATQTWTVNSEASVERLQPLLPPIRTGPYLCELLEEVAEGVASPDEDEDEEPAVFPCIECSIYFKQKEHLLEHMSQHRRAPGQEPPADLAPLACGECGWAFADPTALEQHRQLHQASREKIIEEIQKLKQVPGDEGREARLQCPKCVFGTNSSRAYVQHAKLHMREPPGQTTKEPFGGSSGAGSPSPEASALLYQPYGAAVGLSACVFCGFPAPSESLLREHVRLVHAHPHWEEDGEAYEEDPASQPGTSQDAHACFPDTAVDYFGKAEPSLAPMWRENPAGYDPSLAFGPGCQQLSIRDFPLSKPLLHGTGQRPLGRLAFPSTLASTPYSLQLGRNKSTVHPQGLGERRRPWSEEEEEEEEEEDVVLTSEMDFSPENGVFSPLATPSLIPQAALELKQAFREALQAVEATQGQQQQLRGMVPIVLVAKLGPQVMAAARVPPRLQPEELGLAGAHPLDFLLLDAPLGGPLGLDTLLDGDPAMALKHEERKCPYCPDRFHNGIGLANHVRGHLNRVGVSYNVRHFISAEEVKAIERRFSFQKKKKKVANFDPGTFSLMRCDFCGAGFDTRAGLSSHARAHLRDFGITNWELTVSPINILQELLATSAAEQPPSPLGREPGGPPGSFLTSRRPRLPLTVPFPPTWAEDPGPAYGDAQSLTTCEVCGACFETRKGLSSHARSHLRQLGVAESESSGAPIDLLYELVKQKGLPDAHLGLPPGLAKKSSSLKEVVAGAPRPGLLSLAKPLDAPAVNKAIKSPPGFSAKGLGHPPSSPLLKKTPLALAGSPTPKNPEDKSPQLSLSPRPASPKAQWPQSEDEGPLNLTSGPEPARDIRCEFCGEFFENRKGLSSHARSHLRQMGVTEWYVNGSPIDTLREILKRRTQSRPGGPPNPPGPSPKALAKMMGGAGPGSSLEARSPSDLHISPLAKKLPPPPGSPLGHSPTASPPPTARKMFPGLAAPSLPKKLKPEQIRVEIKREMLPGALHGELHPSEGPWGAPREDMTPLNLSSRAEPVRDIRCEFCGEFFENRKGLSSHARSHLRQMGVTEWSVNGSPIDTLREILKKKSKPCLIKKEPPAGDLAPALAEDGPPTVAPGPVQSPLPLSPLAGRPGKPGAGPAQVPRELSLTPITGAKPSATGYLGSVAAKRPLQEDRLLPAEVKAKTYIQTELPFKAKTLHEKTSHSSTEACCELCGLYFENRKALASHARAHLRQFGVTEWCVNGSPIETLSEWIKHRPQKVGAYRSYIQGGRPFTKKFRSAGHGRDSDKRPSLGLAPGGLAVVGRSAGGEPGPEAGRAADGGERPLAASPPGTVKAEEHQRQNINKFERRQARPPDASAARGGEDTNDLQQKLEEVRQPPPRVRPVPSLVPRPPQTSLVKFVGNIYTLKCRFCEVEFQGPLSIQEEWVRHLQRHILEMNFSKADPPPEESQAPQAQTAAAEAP
Sequence (Q96SW2 whole entry, the tested form may be a part): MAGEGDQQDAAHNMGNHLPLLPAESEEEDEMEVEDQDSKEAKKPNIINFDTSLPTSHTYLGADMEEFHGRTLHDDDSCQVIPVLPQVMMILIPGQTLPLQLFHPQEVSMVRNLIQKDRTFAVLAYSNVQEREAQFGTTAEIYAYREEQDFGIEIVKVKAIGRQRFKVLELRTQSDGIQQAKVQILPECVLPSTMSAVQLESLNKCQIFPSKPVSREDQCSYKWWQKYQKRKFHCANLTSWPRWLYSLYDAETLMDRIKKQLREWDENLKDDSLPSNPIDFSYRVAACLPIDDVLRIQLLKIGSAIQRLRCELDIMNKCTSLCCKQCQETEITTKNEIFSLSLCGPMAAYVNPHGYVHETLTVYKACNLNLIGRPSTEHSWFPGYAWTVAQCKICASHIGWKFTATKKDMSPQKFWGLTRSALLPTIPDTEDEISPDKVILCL
Sequence (Q16531 whole entry partner, the tested form may be a part): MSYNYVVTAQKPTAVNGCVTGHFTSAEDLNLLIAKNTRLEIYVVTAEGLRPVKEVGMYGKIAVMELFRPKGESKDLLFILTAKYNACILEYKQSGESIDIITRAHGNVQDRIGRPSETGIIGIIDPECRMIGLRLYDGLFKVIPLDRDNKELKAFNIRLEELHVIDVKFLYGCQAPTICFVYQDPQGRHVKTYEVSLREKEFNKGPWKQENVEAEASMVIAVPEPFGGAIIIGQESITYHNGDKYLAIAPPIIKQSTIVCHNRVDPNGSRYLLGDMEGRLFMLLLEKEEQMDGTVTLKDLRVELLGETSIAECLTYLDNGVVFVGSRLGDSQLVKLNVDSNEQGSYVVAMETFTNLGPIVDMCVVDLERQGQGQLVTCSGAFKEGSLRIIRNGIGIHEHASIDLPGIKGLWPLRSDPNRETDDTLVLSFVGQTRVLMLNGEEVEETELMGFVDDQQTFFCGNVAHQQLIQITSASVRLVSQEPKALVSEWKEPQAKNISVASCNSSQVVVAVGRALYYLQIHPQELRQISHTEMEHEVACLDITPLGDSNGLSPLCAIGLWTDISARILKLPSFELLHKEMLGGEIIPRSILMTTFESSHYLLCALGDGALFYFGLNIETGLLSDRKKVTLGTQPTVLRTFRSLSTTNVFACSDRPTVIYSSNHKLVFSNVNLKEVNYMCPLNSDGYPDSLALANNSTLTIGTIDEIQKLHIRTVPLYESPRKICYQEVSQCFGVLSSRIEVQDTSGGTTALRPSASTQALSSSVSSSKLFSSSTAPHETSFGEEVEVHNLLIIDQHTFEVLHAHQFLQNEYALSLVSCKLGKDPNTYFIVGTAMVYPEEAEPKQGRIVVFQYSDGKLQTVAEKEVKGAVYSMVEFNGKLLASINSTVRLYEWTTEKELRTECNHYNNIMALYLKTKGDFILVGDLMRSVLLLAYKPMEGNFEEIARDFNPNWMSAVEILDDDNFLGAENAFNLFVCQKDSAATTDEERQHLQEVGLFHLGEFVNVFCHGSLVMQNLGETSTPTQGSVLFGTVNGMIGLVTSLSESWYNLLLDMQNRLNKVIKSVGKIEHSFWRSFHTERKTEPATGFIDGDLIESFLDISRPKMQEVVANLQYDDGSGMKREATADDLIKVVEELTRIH
Our labelling divides records by remaining activity at 25 µM into ranges: class A: < 20%; class B: ≥ 20% and < 40%; class C: ≥ 40%

# compound, label
records = [
    ("O=C1CCN(c2cnn3ccc(CC4CCNCC4)cc23)C(=O)N1", "class C"),
    ("O=C1CCN(c2cnn3ccc(CN4CCN5CCCC[C@@H]5C4)cc23)C(=O)N1", "class B"),
    ("C[C@H]1CN(Cc2ccn3ncc(N4CCC(=O)NC4=O)c3c2)CCN1CC1(C)CCC1", "class A"),
    ("O=C1CCN(c2cnn3ccc(CC4CCN(CC5CCC5)CC4)cc23)C(=O)N1", "class A"),
    ("O=C1CCN(c2cnn3ccc(CN4CCN(CC5(C(F)(F)F)CC5)CC4)cc23)C(=O)N1", "class C"),
    ("O=C1CCN(c2cnn3ccc(CN4CCN(C5CCCCC5)CC4)cc23)C(=O)N1", "class A"),
    ("CC(C)CN1CCC(C(C)c2ccn3ncc(N4CCC(=O)NC4=O)c3c2)CC1 (centres unmarked)", "class A"),
    ("C[C@H]1C[C@H](Cc2ccn3ncc(N4CCC(=O)NC4=O)c3c2)CCN1CC1CCCCCC1", "class A"),
    ("C[C@H]1C[C@H](Cc2ccn3ncc(N4CCC(=O)NC4=O)c3c2)CCN1CC1CCOCC1", "class A"),
    ("C[C@H]1C[C@H](Cc2ccn3ncc(N4CCC(=O)NC4=O)c3c2)CCN1C[C@H]1CC[C@H](C(F)(F)F)CC1", "class A"),
    ("CC(C)S(=O)(=O)N1C[C@@H]2C[C@H]1CN2Cc1ccn2ncc(N3CCC(=O)NC3=O)c2c1", "class C"),
    ("CC(C)CN1CCC(Cc2ccn3ncc(N4CCC(=O)NC4=O)c3c2)CC1(C)C (centres unmarked)", "class B"),
    ("CC(C)CN1CCN(Cc2ccn3ncc(N4CCC(=O)NC4=O)c3c2)C[C@@H]1C(F)F", "class C"),
    ("COCCN1CCC(Cc2ccn3ncc(N4CCC(=O)NC4=O)c3c2)CC1", "class B"),
    ("CC(C)CN1CCN(Cc2ccn3ncc(N4CCC(=O)NC4=O)c3c2)C[C@H]1C", "class B"),
    ("CC(C)CN1CC[C@@H](Cc2ccn3ncc(N4CCC(=O)NC4=O)c3c2)C[C@H]1C", "class B"),
    ("C[C@@H]1CN(CC2CCOCC2)CCN1Cc1ccn2ncc(N3CCC(=O)NC3=O)c2c1", "class B"),
]

* * *

DC50 for assorted compounds
biological target: WIZ protein (HiBit-WIZ fusion protein) (Homo sapiens, UniProt O95785+Q96SW2); construct: expressed in transfected cells; experiment: Quantification of WIZ protein levels in HiBit tag fusion protein assay (WIZ HiBit assay in 293T cells); assay type: cell-based; details: WIZ HiBit assay in 293T cells; 10-point, 5-fold dose response, highest concentration 25 μM, about 18 hours; read-out: WIZ AC50

# smi, DC50 (nM)
data = [
    ("C[C@H]1C[C@H](Cc2ccn3ncc(N4CCC(=O)NC4=O)c3c2)CCN1CC1CC(F)(F)C1", 910),
    ("CN1CCC(Cc2ccn3ncc(N4CCC(=O)NC4=O)c3c2)CC1", 2790),
    ("O=C1CCN(c2cnn3ccc(CC4CCN(C(=O)C5CCCCC5)CC4)cc23)C(=O)N1", 1830),
    ("CC(C)S(=O)(=O)N1C[C@@H]2C[C@H]1CN2Cc1ccn2ncc(N3CCC(=O)NC3=O)c2c1", 754),
]
